This collection of values is drawn from ChEMBL document CHEMBL1201862.

# GI50 per entry
Tested on: M19-MEL
Experiment: NCI tumour cell line growth inhibition, 48 h
Active and inactive are the calls of the source. No stated cut-off is given here; in the data, active = GI50 up to about 1.1 µM and inactive = higher.

INSERT INTO results (compound, measured_value) VALUES
  ('S=c1[nH]nc(Cc2ccccc2)c(=S)[nH]1', '> 100 µM (inactive)'),
  ('O=C(NC1C2CC3CC(C2)CC1C3)c1ccncn1 (stereo unspecified)', '> 100 µM (inactive)'),
  ('Cc1cc(C)nc(NS(=O)(=O)c2ccc(Nc3c4ccccc4nc4c(C(=O)N5CCN(CCO)CC5)ccc(Cl)c34)cc2)n1', '76 µM (inactive)'),
  ('C[n+]1ccc2[nH]c3ccccc3c2c1', '> 100 µM (inactive)'),
  ('Cn1c2cccc3nnc4cccc(c4c32)n1C', '> 100 µM (inactive)'),
  ('CC(C)c1cc2c(O)c(c1)Cc1cc(C(C)C)cc(c1O)Cc1cc(C(C)C)cc(c1O)Cc1cc(C(C)C)cc(c1O)Cc1cc(C(C)C)cc(c1O)Cc1cc(C(C)C)cc(c1O)C2', '> 100 µM (inactive)');

What GI50 appears in the records for this compound with M19-MEL? `CCOC(=O)c1cnc2c(ccc3ncccc32)c1NCCCN(CC)CC` > 100 µM (inactive)

What GI50 appears in the records for this compound with M19-MEL? `COc1ccc(NC(=O)C/C(C)=N\N=C(N)N)c([N+](=O)[O-])c1` > 100 µM (inactive)

What GI50 appears in the records for this compound with M19-MEL? `CCC1=C(C)/C(=C/c2[nH]c(CBr)c(CC)c2C)N=C1CBr` 13.7 µM (inactive)

What GI50 appears in the records for this compound with M19-MEL? COc1ccc(N2C(=O)C(N3C(=O)C=CC3=O)C2C=O)cc1 (stereo unspecified) > 100 µM (inactive)

What GI50 appears in the records for this compound with M19-MEL? N#Cc1cc([N+](=O)[O-])ccc1NC(=O)C(=O)C(C(=O)c1ccc2ccccc2c1)C1OCc2ccccc21 (stereo unspecified) 11.8 µM (inactive)

----------
Test system: SNB-75
Test: NCI tumour cell line growth inhibition, 48 h
Active and inactive are the calls of the source. Cut-off read from the data, not from the text of the source: active = GI50 up to about 1.1 µM and inactive = higher.
Attribute measured: GI50

// below: answered molecules
INSERT INTO measurements (molecule, measured_value) VALUES
  ('N#CCc1cccc(CC#N)c1Br', '> 100 µM (inactive)'),
  ('C=CCC1(OC(C)=O)C2OC(=O)C1(O)OCC2O (centres undefined)', '> 39.9 µM (inactive)'),
  ('C[n+]1ccc2[nH]c3ccccc3c2c1', '> 100 µM (inactive)'),
  ('CC(=O)NC(C)c1ccc(/N=N/N2CCCC2)cc1 (centres undefined)', '> 100 µM (inactive)'),
  ('Cc1cc(C)nc(NS(=O)(=O)c2ccc(Nc3c4ccccc4nc4c(C(=O)N5CCN(CCO)CC5)ccc(Cl)c34)cc2)n1', '87.9 µM (inactive)');

What does the record list as GI50 for C=C(C)[C@@]12C[C@H](OC(=O)[C@H](O)[C@@H](NC(=O)c3ccccc3)c3ccccc3)C(C)=C1[C@@H](OC(C)=O)C(=O)[C@@]1(C)C([C@@H]2OC(=O)c2cc(F)cc(F)c2)C2(OC(C)=O)CO[C@@H]2C[C@@H]1O (some centres undefined) ? 0.0966 µM (active)

What does the record list as GI50 for `CC1(C)OC[C@@H](O)[C@H](C#N)CO1` ? > 100 µM (inactive)

What does the record list as GI50 for `Cc1c(/C=N/NC(=S)Nc2ccccc2)c(=O)n(-c2ccccc2)n1C` ? > 100 µM (inactive)

What does the record list as GI50 for COc1cc(C2SCC(=O)N2c2ccc(-c3ccc(-n4c(-c5ccccc5)nc5ccccc5c4=O)cc3)cc2)ccc1O (centres undefined) ? 15 µM (inactive)
